System: NCI-H226 lung
Assay: NCI-60 one-dose screen, 48 h (100 = growth as untreated, 0 = no growth, -100 = all killed)
Details: 10 µM
Description: Growth inhibition of the NCI-H226 human Non-Small Cell Lung tumor cell line is measured as a screen for anti-cancer activity. Cells are grown in 96 well plates and exposed to the test compound for 48 hours. Compounds are tested at a single concentration, which is 10^-5 M for most compounds. The reported endpoint is percent growth (GI% or GIPRCNT), where numbers from 0 - 100% represent growth inhibition, and numbers from -100% - 0 represent cell death. […]
This is part of a sample that, as a whole, favours compounds with a hit. Of some 83,000 tested, about 20% had one in any assay.
I'd appreciate it if you could supply growth values for the items below.
Answer with a number only, understood to be in %.

Would you mind telling me what growth value was observed for CCOC(=O)c1cc(C(=O)c2cc(OC)c(OC)c(OC)c2)n2ccc(-c3cc[n+](CC(=O)c4cc(OC)c(OC)c(OC)c4)cc3)cc12 ? 90.8

Would you mind telling me what growth value was observed for COc1cccc2ccc(CC(O)(c3ccccc3)c3ccccc3)nc12 ? 71.2

Would you mind telling me what growth value was observed for COc1ccc(-c2csc(NC(=O)c3ccc(Cc4n[nH]c(=O)c5cccnc45)cc3)n2)cc1 ? 71.4

Would you mind telling me what growth value was observed for COc1ccc2c(c1)C(=O)/C(=C/c1ncc([N+](=O)[O-])n1C)O2 ? -24.6

Would you mind telling me what growth value was observed for Cc1ccccc1N1C(=O)c2cc(S(N)(=O)=O)c(Cl)cc2NC1C (stereo not given) ? 112
